Every entry's value here was drawn from paper PMC10797628.

- target-desc: human 5-HT1F receptor (Homo sapiens)
- Construct: host or cells: HEK293T
- Sequence (P30939 whole entry): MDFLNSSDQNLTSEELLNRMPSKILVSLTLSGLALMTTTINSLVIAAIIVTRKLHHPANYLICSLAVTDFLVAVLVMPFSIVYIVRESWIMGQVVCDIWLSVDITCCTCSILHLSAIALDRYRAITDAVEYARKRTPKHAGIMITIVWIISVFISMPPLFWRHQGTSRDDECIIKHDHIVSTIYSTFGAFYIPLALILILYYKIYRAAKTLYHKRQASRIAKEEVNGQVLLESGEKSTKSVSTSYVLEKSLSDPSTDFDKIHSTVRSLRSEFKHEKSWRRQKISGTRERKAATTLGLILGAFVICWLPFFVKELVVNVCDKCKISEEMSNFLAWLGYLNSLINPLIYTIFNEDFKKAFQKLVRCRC
- method-notes: Radioligand binding (saturation and competition), WT 5-HT1F
- measurement-parameters: WT receptor; [^3H]5-HT competition; mean ± SD; read-out: Affinity (pKi ± SD) 5-HT1F (converted)
Provide the recorded Ki for the entries that follow.
Give bare numbers, in µM.

Okay, here is my list. What is Ki for each of these?
1. CN1CCC(c2c[nH]c3ccc(NC(=O)c4ccc(F)cc4)cc23)CC1 [LY334370, reference compound]
2. O=C1CCc2ccc(OCCCCN3CCN(c4cccc(Cl)c4Cl)CC3)cc2N1 [Aripiprazole, aripiprazole, reference compound]

[0.00832, 7.24]

* * *

- target-desc: human 5-HT1D receptor (Homo sapiens, UniProt P28221)
- Construct: host or cells: HEK293T
- Sequence (P28221 whole entry): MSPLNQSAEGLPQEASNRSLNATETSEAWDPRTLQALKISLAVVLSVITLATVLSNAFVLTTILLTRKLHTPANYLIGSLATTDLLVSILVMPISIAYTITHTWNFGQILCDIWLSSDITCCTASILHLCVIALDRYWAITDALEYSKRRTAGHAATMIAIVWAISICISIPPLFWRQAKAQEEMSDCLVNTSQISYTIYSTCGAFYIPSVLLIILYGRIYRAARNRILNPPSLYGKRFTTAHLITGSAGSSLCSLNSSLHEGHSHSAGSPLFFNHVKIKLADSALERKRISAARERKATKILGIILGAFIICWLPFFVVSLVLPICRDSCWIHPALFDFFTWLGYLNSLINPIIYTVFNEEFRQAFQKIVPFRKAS
- method-notes: Radioligand binding (saturation and competition), WT 5-HT1D
- measurement-parameters: Affinity (pKi ± SD) 5-HT1D, WT receptor; [^3H]5-CT competition; mean ± SD
property-name: pKi
Answers are plain numbers, as −log10 of the molar value.

Some entries whose results are on file:
| compound | pKi |
| --- | --- |
| CCCN(CCC)[C@H]1CCc2c(cccc2-c2ccccc2Cl)C1 [(S)-DCPT] | 9.25 |
| CN(C)[C@H]1CCc2c(cccc2-c2ccccc2)C1 [(S)-5-PAT] | 9.18 |

Okay, here is my list. What is pKi for each of these?
1. CN(C)[C@H]1CCc2c(cccc2-c2c(F)cccc2F)C1 [Di-FPT]
2. CN(C)[C@@H]1CCc2c(cccc2-c2cccc3ccccc23)C1 [(R)-NAP]
3. CN(C)[C@@H]1CCc2c(cccc2-c2cccs2)C1 [(R)-TAT]
4. CN(C)[C@H]1CCc2c(cccc2-c2cccc3ccccc23)C1 [(S)-NAP]

1. 8.85
2. 6.97
3. 6.09
4. 9.08

Okay, here is my list. What is pKi for each of these?
1. CN(C)[C@H]1CCc2c(cccc2-c2cccs2)C1 [(S)-TAT]
2. CN(C)[C@H]1CCc2c(cccc2-c2ccccc2F)C1 [(S)-FPT]
3. CN(C)[C@@H]1CCc2c(cccc2-c2ccco2)C1 [(R)-FAT]

1. 8.77
2. 8.97
3. 6.67

* * *

Provide the recorded 5-HT1D EMAX (%) for the entries that follow.
- target-desc: human 5-HT1D receptor (Homo sapiens, UniProt P28221)
- Construct: host or cells: HEK293T
- method-notes: cAMP accumulation (LANCE Ultra TR-FRET) in HEK293T cells, WT 5-HT1D
- Assay type: cell-based
- measurement-parameters: WT receptor; normalized to basal (0%) and 10 μM 5-CT (100%)
Numbers only, in %.

Some entries whose results are on file:
| compound | property-name | experimental-value |
| --- | --- | --- |
| CN(C)[C@H]1CCc2c(cccc2-c2cccn2C)C1 [(S)-NMP] | 5-HT1D EMAX (%) | 66 |
| CCCN(CCC)[C@@H]1CCc2cccc(O)c2C1 [(R)-8-OH-DPAT, reference compound] | 5-HT1D EMAX (%) | 96 |
| NCCc1c[nH]c2ccc(C(N)=O)cc12 [5-CT, 5-carboxamidotryptamine, reference compound] | 5-HT1D EMAX (%) | 101 |

Next up:
// lookup 5-HT1D EMAX (%) for CN(C)[C@H]1CCc2c(cccc2-c2ccccc2)C1 [(S)-5-PAT] 97

* * *

- target-desc: Y5.38A 5-HT1D receptor (Homo sapiens, UniProt P28221, Y197A)
- method-notes: Radioligand binding, Y5.38A 5-HT1D
property-name: Ki (nM)
One number for each entry, in nM.

Some entries whose results are on file:
| compound | unit-string | Ki |
| --- | --- | --- |
| CN(C)[C@H]1CCc2c(cccc2-c2ccccc2F)C1 [(S)-FPT] | nM | 1.07 |
| CN(C)[C@H]1CCc2c(cccc2-c2cccc3ccccc23)C1 [(S)-NAP] | nM | 70.8 |

Next up:
// lookup Ki for Fc1ccccc1-c1cccc2c1CC[C@H](N1CCCC1)C2 [(S)-PFPT] 42.7

* * *

Provide the recorded pKi for the entries that follow.
- target-desc: human 5-HT1A receptor (Homo sapiens, UniProt P08908)
- Construct: host or cells: HEK293T
- Sequence (P08908 1-422): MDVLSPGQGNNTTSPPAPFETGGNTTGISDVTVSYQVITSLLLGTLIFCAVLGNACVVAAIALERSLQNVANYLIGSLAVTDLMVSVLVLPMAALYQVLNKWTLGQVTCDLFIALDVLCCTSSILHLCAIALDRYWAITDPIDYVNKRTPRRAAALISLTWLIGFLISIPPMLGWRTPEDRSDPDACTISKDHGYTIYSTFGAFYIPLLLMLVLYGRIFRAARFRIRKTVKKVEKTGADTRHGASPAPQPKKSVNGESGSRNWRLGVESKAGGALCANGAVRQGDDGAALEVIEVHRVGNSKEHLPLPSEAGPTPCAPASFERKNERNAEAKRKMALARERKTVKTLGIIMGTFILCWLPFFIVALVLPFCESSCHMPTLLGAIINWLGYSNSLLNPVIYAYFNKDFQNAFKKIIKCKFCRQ
- method-notes: Radioligand binding (saturation and competition), WT 5-HT1A
- measurement-parameters: Affinity (pKi ± SD) 5-HT1A, WT receptor; [^3H]5-CT competition; mean ± SD
One number for each entry, as −log10 of the molar value.

Okay, here is my list. What is pKi for each of these?
1. CN(C)[C@H]1CCc2c(cccc2-c2cccn2C)C1 [(S)-NMP]
2. CN(C)[C@H]1CCc2c(cccc2-c2c(F)cccc2F)C1
3. CCCN(CCC)[C@@H]1CCc2c(cccc2-c2ccccc2Cl)C1 [(R)-DCPT]
4. CN(C)[C@@H]1CCc2c(cccc2-c2ccco2)C1 [(R)-FAT]
5. CN(C)[C@H]1CCc2c(cccc2-c2ccccc2Cl)C1 [(S)-CPT]

1: 7.69; 2: 8.77; 3: 6.93; 4: 6.27; 5: 8.24

* * *

Provide the recorded Emax for the entries that follow.
- target-desc: human 5-HT1D receptor (Homo sapiens)
- Construct: host or cells: HEK293T
- method-notes: cAMP accumulation (LANCE Ultra TR-FRET) in HEK293T cells, WT 5-HT1D
- Type: cell-based
- measurement-parameters: HEK-293T; read-out: 5-HT1D EMAX (%)

Some entries whose results are on file:
| molecule | Emax |
| --- | --- |
| O=C1CC2(CCCC2)CC(=O)N1CCCCN1CCN(c2ncccn2)CC1 [Buspirone, buspirone, reference compound] | 50% |
| Fc1ccccc1-c1cccc2c1CC[C@H](N1CCNCC1)C2 [FPIP] | 98% |
| CN(C)[C@H]1CCc2c(cccc2-c2cccc3c2oc2ccccc23)C1 [DBZ] | 99% |

Next up:
// lookup Emax for Fc1ccccc1-c1cccc2c1CC[C@H](N1CCCC1)C2 [(S)-PFPT] 98%

* * *

- target-desc: T7.39N 5-HT1D receptor (Homo sapiens, UniProt P28221, T342N)
- Sequence (P28221 whole entry T342N): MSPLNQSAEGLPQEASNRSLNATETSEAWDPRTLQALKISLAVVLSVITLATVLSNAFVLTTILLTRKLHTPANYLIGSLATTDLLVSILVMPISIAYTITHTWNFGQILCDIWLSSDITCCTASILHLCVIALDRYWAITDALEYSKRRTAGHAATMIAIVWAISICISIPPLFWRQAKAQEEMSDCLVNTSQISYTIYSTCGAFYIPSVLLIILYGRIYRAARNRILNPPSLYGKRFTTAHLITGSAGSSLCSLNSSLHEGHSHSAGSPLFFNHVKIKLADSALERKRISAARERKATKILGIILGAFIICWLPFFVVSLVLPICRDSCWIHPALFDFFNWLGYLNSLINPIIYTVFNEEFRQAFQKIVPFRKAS
- method-notes: Radioligand binding, T7.39N 5-HT1D
property-name: Ki

Some entries whose results are on file:
| compound | Ki |
| --- | --- |
| Fc1ccccc1-c1cccc2c1CC[C@H](N1CCCC1)C2 [(S)-PFPT] | 4.17 nM |
| CN(C)[C@H]1CCc2c(cccc2-c2ccccc2F)C1 [(S)-FPT] | 10.7 nM |

Next up:
Notebook entry, T7.39N 5-HT1D receptor (Homo sapiens, UniProt P28221, T342N) assay: Ki of CN(C)[C@H]1CCc2c(cccc2-c2cccc3ccccc23)C1 [(S)-NAP] = ? 1.07 nM

* * *

- target-desc: human 5-HT1A receptor (Homo sapiens)
- Construct: host or cells: HEK293T
- Sequence (P08908 1-422): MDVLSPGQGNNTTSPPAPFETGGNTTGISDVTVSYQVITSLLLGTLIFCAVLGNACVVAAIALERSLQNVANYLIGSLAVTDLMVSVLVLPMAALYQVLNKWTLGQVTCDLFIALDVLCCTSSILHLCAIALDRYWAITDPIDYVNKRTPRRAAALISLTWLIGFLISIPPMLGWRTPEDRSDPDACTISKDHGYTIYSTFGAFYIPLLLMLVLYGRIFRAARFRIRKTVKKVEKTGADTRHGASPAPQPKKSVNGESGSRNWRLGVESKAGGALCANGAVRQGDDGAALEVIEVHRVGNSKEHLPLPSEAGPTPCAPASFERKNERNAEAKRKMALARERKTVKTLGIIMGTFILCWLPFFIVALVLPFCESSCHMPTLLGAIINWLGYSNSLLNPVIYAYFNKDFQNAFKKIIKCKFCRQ
- method-notes: Radioligand binding (saturation and competition), WT 5-HT1A
- measurement-parameters: read-out: Affinity (pKi ± SD) 5-HT1A (converted)
Please assign f whenever Ki is at or above 300 nM, and t whenever it is below.

| molecule | category-label |
| --- | --- |
| Fc1ccccc1-c1cccc2c1CC[C@H](N1CCNCC1)C2 | t |
| Fc1ccccc1-c1cccc2c1CC[C@@H](N1CCCC1)C2 [(R)-PFPT] | t |
| Fc1ccccc1-c1cccc2c1CC[C@H](N1CCCC1)C2 [(S)-PFPT] | t |

Then this molecule:
Lab note: confirm whether the reported Ki for this molecule is below 300 nM, equality not counting. molecule: CN1CCC(c2c[nH]c3ccc(NC(=O)c4ccc(F)cc4)cc23)CC1 [LY334370, reference compound] f
